Test: NOVARTIS: Cytotoxicity against human hepatocellular carcinoma cell line (Huh7)
Format: toxicity, cell-based, Huh-7
Cond: Huh7 cells (hepatocellular carcinoma cell line)
Quantity Measured: CC50

| Compound | CC50 |
| --- | --- |
| CCCC[n+]1c(C=C2C=Cc3ccccc3N2CC)sc2ccccc21 | > 10 µM |

Would you mind giving CC50 for every compound in the list below?
1. CCCCCCCN(CCCCCCC)CC(O)c1cc2ccccc2c2cc(Br)ccc12 (stereo not drawn)
2. COc1ccc(CCNC(=S)Nc2ccccc2C)cc1OC
3. COc1ccc(OC)c(C2CC(=O)C3=C(C2)NC(=O)CC3c2ccc([N+](=O)[O-])cc2)c1 (stereo not drawn)
4. CC1CNC2C(C)C3C(CC4C5CCC6CC(N)CCC6(C)C5CCC43C)OC2(O)C1 (stereo not drawn)
5. Cc1nc(Cl)cc(N2CCc3c(nc(N4CC(C)OC(C)C4)[nH]c3=O)C2)n1 (stereo not drawn)
6. O=C(O)c1ccc2c(c1)N=C(c1ccccc1)N(Cc1cccnc1)C2
7. Cc1ccc(NC(=O)C2CSC(c3cccc(F)c3)N2C(=O)c2ccc(C(C)(C)C)cc2)cc1 (stereo not drawn)

> 4.63 µM
> 100 µM
72.2 µM
> 10 µM
> 10 µM
> 10 µM
> 100 µM

====

Kindly state pEC50 for each of the entries shown.
Test system: Plasmodium falciparum
Test: NOVARTIS: Inhibition of Plasmodium falciparum 3D7 (drug-susceptible) proliferation in erythrocyte-based infection assay
Assay type: functional, organism-based
Cond: Plasmodium falciparum, 3D7
pEC50: −log10 of the molar value.

Use the examples below as a reference point.
| Compound | pEC50 |
| --- | --- |
| Cc1cc2ncn(N=Cc3cccnc3)c2cc1C | < 5.99 |
| COc1ccc([N+](=O)[O-])cc1N(CC1CO1)S(=O)(=O)c1ccc(C)cc1 (stereo not drawn) | < 4.90 |

Consider the record given below.
API: value(readout= pEC50, system= Plasmodium falciparum, query= CCOc1cc(Br)cc(C=C2NC(=S)NC2=O)c1O )
< 5.43

====

Test: NOVARTIS: Cytotoxicity against human hepatocellular carcinoma cell line (Huh7)
Assay type: toxicity, cell-based, Huh-7
Cond: Huh7 cells (hepatocellular carcinoma cell line)
Quantity Measured: CC50

Use the examples below as a reference point.
| Compound | CC50 |
| --- | --- |
| COc1ccccc1NC1=C(N2CCCCC2)C(=O)c2ccccc2C1=O | 7.87 µM |
| COc1ccc(S(=O)(=O)NCC2CCC(C(=O)NCC(OC)OC)CC2)cc1 (stereo not drawn) | > 10 µM |

Consider the record given below.
State the recorded CC50 for this entry: CCOc1ccc(-c2cn3c(n2)sc2cc(C(=O)NCCN(CC)CC)ccc23)cc1
47.5 µM

====

System: Plasmodium falciparum
Test: NOVARTIS: Inhibition of Plasmodium falciparum W2 (drug-resistant) proliferation in erythrocyte-based infection assay
Assay type: functional, organism-based
Cond: Plasmodium falciparum, W2; read-out: EC50
Quantity Measured: log10(EC50) (log10 of the value in nM)
Scale: log10; quantity: EC50; unit before log: nM

Use the examples below as a reference point.
| Compound | log10(EC50) |
| --- | --- |
| CSc1cccc(NC(=O)C2C3C=CC4(O3)C2C(=O)N(Cc2ccc(F)cc2)C4C(=O)NC2CCCC(C)C2C)c1 (stereo unspecified) | 2.94 |
| Cc1ccc(N2C(=O)C3C(C2=O)C2(c4ccccc4)C(=O)C3(c3ccccc3)C(c3ccccc3)=C2c2ccccc2)cc1Br (stereo unspecified) | 3.15 |
| CN1CCCC1CCNc1ncc(C(=O)NCc2ccccc2)c(NCC2CCCCC2)n1 (stereo unspecified) | 2.00 |
| O=C(/C=C/c1ccc(Br)cc1)NC(=O)c1ccccc1O | 3.04 |
| COc1ccc(CNCc2cc(-c3ccnc4cc(Cl)ccc34)ccc2O)c(OC)c1 | 1.58 |

Would you mind giving log10(EC50) for every compound in the list below?
1. O=C(/C=C\c1ccccc1)Nc1ccc2[nH]c(-c3ccc(NC(=O)/C=C/c4ccccc4)cc3)nc2c1
2. CCC(c1nc2ccccc2c(=O)n1-c1ccc(Cl)cc1C)N(CCc1ccccc1)C(=O)c1cccc(OC)c1 (stereo unspecified)
3. O=[N+]([O-])c1ccc(-c2ccc(C=NNc3nc(Nc4ccccc4)nc(Nc4ccccc4)n3)o2)cc1
4. CC(Nc1ccccc1)C(=O)Nc1cc(C(F)(F)F)ccc1Cl (stereo unspecified)
5. OCC[n+]1ccc(/C=C/c2c[nH]c3ccccc23)cc1
6. COCCNC(=O)c1ccc(OC2CCN(CC(c3ccccc3)c3ccccc3)CC2)c(OC)c1
7. CC(=O)N(C1=C(N(C)C)C(=O)c2ccccc2C1=O)c1cccc(O)c1

[2.63, 2.37, 2.97, 3.11, 2.74, 1.87, 1.76]

Would you mind giving log10(EC50) for every compound in the list below?
1. CSCCC(C(=O)NCC(=O)O)N1C(=O)c2cc(NC(C)=O)ccc2NC(=O)[C@@H]1c1ccccc1 (stereo partly specified)
2. CCOc1ccc(Nc2nc(N)c3ccccc3n2)cc1
3. COc1ccccc1C1CC(c2ccccc2)=NN1C(=O)c1ccccc1 (stereo unspecified)
4. Cc1ccc(-c2nn(CC(=O)Nc3ccc(OC(F)(F)F)cc3)c(=O)c3ccccc23)cc1S(=O)(=O)N1CCCCC1

1: 1.18; 2: 3.20; 3: 2.04; 4: 3.28

Would you mind giving log10(EC50) for every compound in the list below?
1. CC1OC(=O)C(C(C)C)NC(=O)C(C(C)C)OC(=O)C(C(C)C)NC(=O)C(C)OC(=O)C(C(C)C)NC(=O)C(C(C)C)OC(=O)C(C(C)C)NC(=O)C(C)OC(=O)C(C(C)C)NC(=O)C(C(C)C)OC(=O)C(C(C)C)NC1=O (stereo unspecified)
2. CCOC(=O)c1cnc2ccc(C)cc2c1NCCCN1CCOCC1
3. COc1ccc(C(=O)C2CC2c2ccc(Cl)cc2)cc1 (stereo unspecified)
4. CCN1/C(=C/c2cccc[n+]2C)C=Cc2cc(C)ccc21

1: 1.07; 2: 2.92; 3: 3.15; 4: 2.78

====

Test system: Plasmodium falciparum
Test: NOVARTIS: Inhibition of Plasmodium falciparum 3D7 (drug-susceptible) proliferation in erythrocyte-based infection assay
Assay type: functional, organism-based
Cond: Plasmodium falciparum, 3D7
Quantity Measured: EC50

Use the examples below as a reference point.
| Compound | EC50 |
| --- | --- |
| CC(C)(C)c1ccc(CNC(=O)C(Cc2ccc(O)cc2)c2ccccc2)cc1 (centres undefined) | > 8680 nM |
| CN(C)c1ccc(C=C2C(=O)NC(=O)N(Cc3ccccc3Cl)C2=O)cc1 | > 12500 nM |
| CC1CCCCN1CC(=O)N1CCN(C(=O)CN2CCCCC2C)CC1.CC=O (centres undefined) | > 1250 nM |
| CN(C)c1nc(Cl)nc(N(C#N)CCOc2ccccc2)n1 | > 703 nM |
| Cc1ccc(Nc2nc3nonc3nc2N(C)C)cc1Cl | > 1460 nM |
| Cc1n[nH]c2c1C(c1ccc([N+](=O)[O-])cc1)N(c1ccc(Br)cc1)C2=O (centres undefined) | > 12500 nM |
| C=CCn1c(COc2ccccc2C)nnc1SCC(=O)O | > 12500 nM |
| O=c1c(=Cc2ccc(Cl)cc2)sc2nc3ccccc3n12 | > 436 nM |
| COc1cc(CNCCCn2ccnc2)ccc1OCc1ccccc1 | > 1250 nM |
| CC(=O)N(C)C1=C(N2CCCC2)C(=O)c2ccccc2C1=O | 516 nM |

Would you mind giving EC50 for every compound in the list below?
1. CC1CC2=C(CC1CNCCCN(C)C)C(C)(C)CCC2 (centres undefined)
2. CCN(CC)CCN1C(=O)c2ccccc2NC1c1ccc(N(C)C)cc1 (centres undefined)
3. CCCCCN(C(=O)c1cccc(OC)c1)C(CC)c1nc2ccccc2c(=O)n1-c1ccccc1OC (centres undefined)
4. Cc1cc(Nc2ccc(Cl)c(Cl)c2)n2ncnc2n1

250 nM
285 nM
614 nM
1680 nM

Would you mind giving EC50 for every compound in the list below?
1. CCOC(=O)C1=C(C)NC2=C(C(=O)C(C(=O)OC)C(C)C2)C1c1cc(Br)c(OCC)c(OC)c1 (centres undefined)
2. CC12C(=O)N(c3cccc(C(=O)O)c3)C(=O)C1C1c3ccccc3C2c2ccccc21 (centres undefined)
3. Cc1onc(-c2ccccc2Cl)c1C(=O)Nc1cc(Cl)ccc1Cl
4. CCOc1ccc(-n2c(=S)sc3c(=O)n(-c4ccc(C)cc4)c(SCC(=O)Nc4cc(OC)ccc4OC)nc32)cc1
5. COc1ccc(OC)c(NC(=O)CSc2nc(NCc3ccc(Cl)cc3)c3ccccc3n2)c1

1: 255 nM; 2: > 652 nM; 3: 369 nM; 4: 285 nM; 5: > 11200 nM

====

Test: NOVARTIS: Cytotoxicity against human hepatocellular carcinoma cell line (Huh7)
Format: toxicity, cell-based, Huh-7
Cond: Huh7 cells (hepatocellular carcinoma cell line)
Quantity Measured: CC50

Use the examples below as a reference point.
| Molecule | CC50 |
| --- | --- |
| CCCCCCCCNC(=O)C1CC1c1ccccc1 (stereo not given) | > 100 µM |
| COc1ccccc1CN1CCC(S(=O)(=O)c2ccccc2)CC1 | 1.08 µM |
| COc1ccccc1NC(=O)CCCC(=O)OC(C)C(=O)c1ccccc1 (stereo not given) | > 10 µM |
| COc1ccc(OC)c(-c2ccc(O)c(CNC3CCCCCC3)c2)c1 | > 10 µM |

State the recorded CC50 for this entry: COCCNCCN1CCN(c2ccc(C)cc2)C[C@@H]1c1ccccc1
11.2 µM
